meta.source: PubChem BioAssay AID686996

Listing: inhibition of selected compounds
biological target: Caspase-6 (Homo sapiens); assay: human caspase-6 inhibitors, primary screen, biochemical, VEID-R110 fluorescence, single point, set 2 (AID 686996); conditions: purified caspase-6, Z-VEID-R110 cleavage fluorescence; at 12.5 µM; active compounds read high;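 also: 0% = median of neutral control wells and 100% = no fluorescence left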
The whole screen tested about 350,000 compounds, of which about 1,900 (0.54%) were called active. Only a selection was taken, and actives are over-represented in it overall.

>  <Line Notation>
CCOC(=O)c1cccc(C2=C(CNC(=O)c3ccncc3)[C@H]3CC[C@@H](C2)N3Cc2ccccc2)c1

>  <inhibition>
0.927% (inactive)

$$$$
>  <Line Notation>
COC(=O)C1=C(c2ccc3ccccc3c2)C[C@@H]2CC[C@H]1N2C(=O)NCCO

>  <inhibition>
-0.313% (inactive)

$$$$
>  <Line Notation>
COC(=O)[C@@H]1[C@@H](CO)[C@@H]2Cn3c(ccc(-c4cccc(C(=O)N(C)C)c4)c3=O)[C@H]1N2C(=O)NC(C)C

>  <inhibition>
0.335% (inactive)

$$$$
>  <Line Notation>
O=C(Cc1ccccn1)N1CCCCN2[C@@H](CO)[C@@H](c3ccc(C#Cc4ccccc4)cc3)[C@@H]2C1

>  <inhibition>
-4% (inactive)

$$$$

====

biological target: Caspase-6 (Homo sapiens) (UniProt P55212); assay: human caspase-6 inhibitors, primary screen, biochemical, VEID-R110 fluorescence, single point, set 2 (AID 686996); settings: purified caspase-6, Z-VEID-R110 cleavage fluorescence; at 12.5 µM; active compounds read high;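 also: 0% = median of neutral control wells and 100% = no fluorescence left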
Sequence (P55212 24-179 limits assumed): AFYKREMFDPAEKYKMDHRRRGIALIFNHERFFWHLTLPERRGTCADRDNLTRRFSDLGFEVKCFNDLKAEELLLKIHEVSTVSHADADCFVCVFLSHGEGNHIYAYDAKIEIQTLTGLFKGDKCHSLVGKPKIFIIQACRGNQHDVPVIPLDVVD
Sequence (P55212 194-293 limits assumed): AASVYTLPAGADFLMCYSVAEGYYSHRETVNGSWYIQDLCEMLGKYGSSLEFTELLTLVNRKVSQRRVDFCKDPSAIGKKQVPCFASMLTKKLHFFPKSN
About 1,900 (0.54%) of roughly 350,000 compounds were called active. Only a selection was taken, and actives are over-represented in it overall.
Listing: inhibition of selected molecules
Observable: inhibition (%)

>  <Molecule>
COc1cccc(N2C(=O)NC(=O)/C(=C\c3cn(C)c4ccccc34)C2=O)c1

>  <Value Observed>
4.46

$$$$
>  <Molecule>
CCOC(=O)[C@]12Cc3ccccc3[C@H]1N(C1CCCCC1)C(=O)c1cc(OC)ccc12

>  <Value Observed>
1.66

$$$$
>  <Molecule>
COC(=O)[C@H]1[C@H](CO)[C@H]2Cn3c(cccc3=O)[C@H]2N1CC1CC1

>  <Value Observed>
1.75

$$$$
>  <Molecule>
Cc1ccc(-n2c(C)cc(/C=C3\C(=O)NC(=O)N(C)C3=O)c2C)cc1C

>  <Value Observed>
12.1

$$$$
>  <Molecule>
COc1ccc(N2C(=O)/C(=C/c3ccco3)C(=O)NC2=S)cc1

>  <Value Observed>
-1.07

$$$$
>  <Molecule>
c1cc2c(c(NC3=NCCCS3)c1)CCCC2

>  <Value Observed>
-1.96

$$$$
>  <Molecule>
CC(C)CN1Cc2cc(N3CCCCC3)ccc2-n2nncc2C1

>  <Value Observed>
-0.486

$$$$
>  <Molecule>
COc1cc(OC)cc(C(=O)NCCN2CCC3(CC2)C(=O)NCN3c2ccccc2)c1

>  <Value Observed>
-14.3

$$$$
>  <Molecule>
COc1cccc(N2C(=O)NC(=O)/C(=C\c3ccc([N+](=O)[O-])s3)C2=O)c1

>  <Value Observed>
46

$$$$
>  <Molecule>
O=C(O)COc1ccccc1/C=C1\C(=O)NC(=O)N(CCC2=CCCCC2)C1=O

>  <Value Observed>
9.11

$$$$
>  <Molecule>
Cc1ccccc1N1C(=O)NC(=O)/C(=C\c2cc(C)n(C)c2C)C1=O

>  <Value Observed>
3.93

$$$$
>  <Molecule>
O=C1NC(=O)N(Cc2ccco2)C(=O)/C1=C\c1ccc(-c2ccc(F)cc2)o1

>  <Value Observed>
73.9

$$$$
>  <Molecule>
O=C1NC(=O)N(CCc2ccc(F)cc2)C(=O)/C1=C/C=C/c1ccccc1

>  <Value Observed>
-1.88

$$$$
>  <Molecule>
COc1ccc(CN2C(=O)NC(=O)/C(=C\c3ccc(OC)c(OC)c3OC)C2=O)cc1

>  <Value Observed>
4.46

$$$$
>  <Molecule>
COC1C(O)C(C)OC(OC2CCC3(C=O)C(CCC4C3CCC3(C)C(C5=CC(=O)OC5)CCC43O)C2)C1O (stereo not given)

>  <Value Observed>
0.09

$$$$
